Target: T1, Qβ (RNA bacteriophage Qbeta, UniProt P03615 2-133)
T1 construct: The description says it is a VLP of RNA bacteriophage Qbeta; also called Qbeta; VLP of RNA bacteriophage Qbeta
T1 sequence: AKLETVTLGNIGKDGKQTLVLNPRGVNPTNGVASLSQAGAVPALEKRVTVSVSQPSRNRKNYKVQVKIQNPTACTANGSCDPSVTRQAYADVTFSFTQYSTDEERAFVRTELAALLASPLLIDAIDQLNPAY
Assay: ELISA, Qβ coated, purified IgG2; range of concentrations of half-maximal binding
pEC50: −log10 of the molar value.
observed-property: pEC50

Would you mind telling me what pEC50 value was observed for Qb#3 whole IgG2 (antibody, V domains shown, domain: γ2 heavy chain constant region; also called Qβ#3 IgG2; pCB15-Qb#3-IgG2 product; not shown: human κ light chain constant region (vector pCMV-LC)) VH: QVQLQESGPGLVKPSETLSLTCTVSGGSISSGNYYWSWIRQTPEKGLEWLGYVHYTGSSKLNPSLKSRVTISVDTYTNQFSLSLSSMTAADTAVYYCARGKNCANDICYIGSWFDPWGQGTLVTVSS VL: ELVMTQSPSSLSASVGDRVTITCRASQGVSRALAWYQQKPGNPPKLLIYDASNLQSGVPSRFSGGGSGTEFILTISSLQPEDFATYYCQQYNAYPWTFGQGTKLEIK ? 10.43 to 10.82
